# experiment: Clearance in cynomolgus monkey at 0.5 mg/kg, iv
# Assay type: ADME, organism-based, Macaca fascicularis
# Parameters: dose 0.5 mg/kg, route intravenous
# conditions: in vivo
quantity: clearance (mL/min/kg)

molecule.smiles: CCCCNC(=O)c1ccc(Oc2ccc(CC(=O)O)cc2OC)c(NS(=O)(=O)c2ccc(Cl)cc2Cl)c1
quantity: clearance
result.unit: mL/min/kg
experimental.result: 4.5

====

# experiment: Mean residence time in dog at 0.5 mg/kg, iv and 2 mg/kg, po
# Assay type: ADME, organism-based, Canis lupus familiaris
# conditions: in vivo

molecule.smiles: CCCCNC(=O)c1ccc(Oc2ccc(CC(=O)O)cc2OC)c(NS(=O)(=O)c2ccc(Cl)cc2Cl)c1
MRT [h]: 1.4

====

# study.system: Prostaglandin D2 receptor (Homo sapiens, UniProt Q13258)
# Sequence (Q13258 whole entry): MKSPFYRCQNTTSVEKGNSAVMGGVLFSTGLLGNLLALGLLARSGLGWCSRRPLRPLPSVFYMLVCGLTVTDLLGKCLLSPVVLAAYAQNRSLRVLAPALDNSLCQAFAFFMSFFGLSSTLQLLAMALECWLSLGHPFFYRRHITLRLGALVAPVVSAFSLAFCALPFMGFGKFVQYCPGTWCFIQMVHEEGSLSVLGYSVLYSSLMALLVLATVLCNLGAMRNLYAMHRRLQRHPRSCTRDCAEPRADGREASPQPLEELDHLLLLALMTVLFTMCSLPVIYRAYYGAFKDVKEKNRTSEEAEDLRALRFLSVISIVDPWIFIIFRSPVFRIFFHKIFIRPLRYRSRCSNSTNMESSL
# experiment: Displacement of [3H]-PGD2 from human DP receptor expressed in HEK 293 cells in presence of 0.5% BSA by scintillation counting
pIC50: −log10 of the molar value.
Listed below: pIC50 values for each entry.

molecule: CCNC(=O)c1ccc(Oc2cccc(CC(=O)O)c2)c(NS(=O)(=O)c2ccc(Cl)cc2Cl)c1
prefix.operator: <
pIC50: 5.00
//
molecule: CCCNC(=O)c1ccc(Oc2ccc(CC(=O)O)cc2OC)c(NS(=O)(=O)c2ccc(Cl)cc2Cl)c1
prefix.operator: =
pIC50: 7.51
//
molecule: COc1cc(CC(=O)O)ccc1Oc1ccc(C(=O)NCC(C)C)cc1NS(=O)(=O)c1ccc(Cl)cc1Cl
prefix.operator: =
pIC50: 7.23
//
molecule: CCNC(=O)c1ccc(Oc2ccc(C(C)C(=O)O)cc2)c(NS(=O)(=O)c2ccc(Cl)cc2Cl)c1 (centres undefined)
prefix.operator: =
pIC50: 7.37

====

# experiment: Volume of distribution at steady state in rat at 0.5 mg/kg, iv and 2 mg/kg, po
# Format: ADME, organism-based
# conditions: in vivo, read-out: Vdss

molecule.smiles: CCCCNC(=O)c1ccc(Oc2ccc(CC(=O)O)cc2OC)c(NS(=O)(=O)c2ccc(Cl)cc2Cl)c1
Vd: 1 L/kg

====

# study.system: Prostaglandin E2 receptor EP2 subtype (Homo sapiens, UniProt P43116)
# Sequence (P43116 whole entry): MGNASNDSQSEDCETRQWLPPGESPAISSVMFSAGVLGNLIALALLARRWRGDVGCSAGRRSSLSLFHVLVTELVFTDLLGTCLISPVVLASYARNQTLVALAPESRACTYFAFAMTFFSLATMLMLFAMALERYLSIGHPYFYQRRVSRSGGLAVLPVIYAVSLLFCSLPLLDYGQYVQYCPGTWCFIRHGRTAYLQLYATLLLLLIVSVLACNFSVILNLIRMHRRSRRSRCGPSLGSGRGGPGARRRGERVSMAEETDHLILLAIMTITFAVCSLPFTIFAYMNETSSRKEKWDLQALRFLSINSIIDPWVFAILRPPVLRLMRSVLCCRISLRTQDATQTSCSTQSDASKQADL
# experiment: Inhibition of EP2 expressed in HEK293 cells assessed as inhibition of PGE2-induced cAMP production
quantity: Ki

molecule.smiles: CCCCNC(=O)c1ccc(Oc2ccc(CC(=O)O)cc2OC)c(NS(=O)(=O)c2ccc(Cl)cc2Cl)c1
study.system: Prostaglandin E2 receptor EP2 subtype (Homo sapiens, UniProt P43116)
experimental.result: 44 µM

====

# study.system: Prostaglandin D2 receptor (Homo sapiens)
# experiment: Displacement of [3H]-PGD2 from human DP receptor expressed in HEK 293 cells in presence of 0.5% BSA by scintillation counting
pIC50: −log10 of the molar value.
Measured pIC50 accompanies every entry in the list below.

molecule.smiles: CCNC(=O)c1ccc(Oc2ccc(CC(=O)O)cc2F)c(NS(=O)(=O)c2ccc(Cl)cc2Cl)c1
prefix.operator: =
pIC50: 7.44

molecule.smiles: CCNC(=O)c1ccc(Oc2ccc(CCC(=O)O)cc2OC)c(NS(=O)(=O)c2ccc(Cl)cc2Cl)c1
prefix.operator: =
pIC50: 5.68

molecule.smiles: CCNC(=O)c1ccc(Oc2c(OC)cc(CC(=O)O)cc2OC)c(NS(=O)(=O)c2ccc(Cl)cc2Cl)c1
prefix.operator: =
pIC50: 4.80

molecule.smiles: CCNC(=O)c1ccc(Oc2ccc(Cc3nnn[nH]3)cc2)c(NS(=O)(=O)c2ccc(Cl)cc2Cl)c1
prefix.operator: =
pIC50: 6.88

molecule.smiles: CCNC(=O)c1ccc(Oc2ccc(C(=O)O)cc2OC)c(NS(=O)(=O)c2ccc(Cl)cc2Cl)c1
prefix.operator: <
pIC50: 5.00
